Target: MASP-2 in human serum (human, UniProt O00187 16-686)
Sequence (O00187 16-686 limits assumed): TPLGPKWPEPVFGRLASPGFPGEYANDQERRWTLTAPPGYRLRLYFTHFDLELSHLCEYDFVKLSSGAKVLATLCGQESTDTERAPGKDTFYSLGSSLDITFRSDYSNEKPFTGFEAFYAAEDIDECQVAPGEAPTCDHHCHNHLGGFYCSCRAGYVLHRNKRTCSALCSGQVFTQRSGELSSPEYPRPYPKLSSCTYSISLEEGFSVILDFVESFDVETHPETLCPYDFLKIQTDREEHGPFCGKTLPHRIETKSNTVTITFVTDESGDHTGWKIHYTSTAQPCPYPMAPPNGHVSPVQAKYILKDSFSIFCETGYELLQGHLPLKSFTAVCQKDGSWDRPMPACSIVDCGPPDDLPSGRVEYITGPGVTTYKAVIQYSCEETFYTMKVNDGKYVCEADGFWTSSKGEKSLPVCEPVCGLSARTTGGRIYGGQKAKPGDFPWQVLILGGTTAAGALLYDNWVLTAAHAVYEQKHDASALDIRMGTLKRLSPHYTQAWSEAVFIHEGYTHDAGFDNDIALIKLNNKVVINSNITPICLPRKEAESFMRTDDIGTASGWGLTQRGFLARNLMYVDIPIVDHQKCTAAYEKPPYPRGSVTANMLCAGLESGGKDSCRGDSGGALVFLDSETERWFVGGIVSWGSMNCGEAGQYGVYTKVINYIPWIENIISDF
Assay: cell-based or functional assay
We label by threshold. Values of IC50, inhibition of C3b deposition strictly beneath 0.02 nM are YES. Values of 0.02 nM and up are NO.

See these solved cases before continuing.
- Binder: "h16B11 H1K1 (antibody, V domains shown) VH: QMQLQESGPGLVKPSETLSLTCTVSGYSITSDYAWNWIRQPPGKGLEWIGYISYSGRTSYNPSLKSRVTISRDTSKNQFSLKLSSVTAADTAVYYCARHYGDYWGQGTLVTVSS VL: DIQMTQSPSSLSASVGDRVTITCRASQNVGTNVAWYQQKPGKAPKALIYSASYRESGVPSRFSGSGSGTDFTLTISSLQPEDFATYFCQQFNTNPLTFGGGTKVEIK"
  Class assignment: "YES"
- Binder: "h16B11 H3K2 (antibody, V domains shown) VH: QLQLQESGPGLVKPSETLSLTCTVSGYSITSDYAWNWIRQPPGKGLEWIGYISYSGRTSYNPSLKSRVTISVDTSKNQFSLKLSSVTAADTAVYYCARHYGDYWGQGTLVTVSS VL: DIQMTQSPSSLSASVGDRVTITCRASQNVGTNVAWYQQKPGKAPKLLIYSASYRESGVPSRFSGSGSGTDFTLTISSLQPEDFATYFCQQFNTNPLTFGGGTKVEIK"
  Class assignment: "NO"
- Binder: "h3H6 H1K1 (antibody, V domains shown) VH: QVQLVQSGAEVKKPGSSVKVSCKASGYTFATYSIHWVRQAPGQGLEWMGYINPSSGYTNYNQKFQGRVTLTADKSTSTAYMELSSLRSEDTAVYYCARVYYTFYHAMDYWGQGTTVTVSS VL: DIQMTQSPSSLSASVGDRVTITCRASQDVNTAVAWYQQKPGKAPKLLIYSASYRYTGVPSRFSGSGSGTDFTLTISSLQPEDFATYYCQQHYNIPLTFGGGTKVEIK"
  Class assignment: "NO"
- Binder: "h16B11 H1K3 (antibody, V domains shown) VH: QMQLQESGPGLVKPSETLSLTCTVSGYSITSDYAWNWIRQPPGKGLEWIGYISYSGRTSYNPSLKSRVTISRDTSKNQFSLKLSSVTAADTAVYYCARHYGDYWGQGTLVTVSS VL: DIQMTQSPSSLSASVGDRVTITCRASQNVGTNVAWYQQKPGKAPKALIYSASYRQSGVPSRFSGSGSGTDFTLTISSLQPEDFATYFCQQFNTNPLTFGGGTKVEIK"
  Class assignment: "NO"

Now consider the entry below.
q: Consider h28O14 H2K1 (antibody, V domains shown) VH: QVQLVQSGAEVKKPGSSVKVSCKASGYTFRSHTMHWVRQAPGQGLEWMGYINPSTGYINYNQKFQGRVTLTADESTSTAYMELSSLRSEDTAVYYCARSNYAYYYGMDYWGQGTTVTVSS VL: DIQMTQSPSSLSASVGDRVTITCRASQDVNTAVAWYQQKPGKAPKLLIYSASYRYTGVPSRFSGSGSGTDFTLTISSLQPEDFATYYCQQHYNIPLTFGGGTKVEIK . Does its IC50, inhibition of C3b deposition lie strictly below 0.02 nM?
a: NO
